Tested on: cisplatin-induced hearing loss in patients with head and neck cancer
Assay: Clinical hearing status (PTA of 1, 2 and 4 kHz) at follow-up after cisplatin therapy
Type: in vivo, human
Details: post-cisplatin therapy
measurement_kind: hearing status at follow-up: Profound (PTA ≥95), number of ears (No. Ears)

[
  {
    "smi": "O=C(O)C[C@H](O)C[C@H](O)/C=C/c1c(C2CC2)nc2ccccc2c1-c1ccc(F)cc1",
    "assay_result": 0
  },
  {
    "smi": "CC[C@H](C)C(=O)O[C@H]1C[C@H](O)C=C2C=C[C@H](C)[C@H](CC[C@@H](O)C[C@@H](O)CC(=O)O)[C@H]21",
    "assay_result": 0
  },
  {
    "smi": "CC(C)c1c(C(=O)Nc2ccccc2)c(-c2ccccc2)c(-c2ccc(F)cc2)n1CC[C@@H](O)C[C@@H](O)CC(=O)O",
    "assay_result": 3
  },
  {
    "smi": "CC[C@H](C)C(=O)O[C@H]1C[C@@H](C)C=C2C=C[C@H](C)[C@H](CC[C@@H]3C[C@@H](O)CC(=O)O3)[C@H]21",
    "assay_result": 0
  },
  {
    "smi": "CC(C)c1nc(N(C)S(C)(=O)=O)nc(-c2ccc(F)cc2)c1/C=C/[C@@H](O)C[C@@H](O)CC(=O)O",
    "assay_result": 0
  }
]

====

Tested on: cisplatin-induced hearing loss in patients with head and neck cancer
Assay: Clinical hearing status (PTA of 1, 2 and 4 kHz) at follow-up after cisplatin therapy
Type: in vivo, human
Details: post-cisplatin therapy
measurement_kind: hearing status at follow-up: Mild (PTA >20, <40), percent of ears

[
  {
    "compound": "CC[C@H](C)C(=O)O[C@H]1C[C@@H](C)C=C2C=C[C@H](C)[C@H](CC[C@@H]3C[C@@H](O)CC(=O)O3)[C@H]21 [lovastatin]",
    "assay_result": "(100.00) %"
  },
  {
    "compound": "O=C(O)C[C@H](O)C[C@H](O)/C=C/c1c(C2CC2)nc2ccccc2c1-c1ccc(F)cc1 [pitavastatin]",
    "assay_result": "(100.00) %"
  }
]

Recorded values, source patent US20240293361A1.
